target: cIAP2-BIR3 (Homo sapiens, UniProt Q13489); construct: cIAP2-BIR3; Reaction Biology; APT-11-372; experiment: cIAP2-BIR3 fluorescence polarization binding assay; settings: FP, probe AbuRPFK-5FAM, 60 min at 25° C.
Sequence (Q13489 238-349 limits assumed): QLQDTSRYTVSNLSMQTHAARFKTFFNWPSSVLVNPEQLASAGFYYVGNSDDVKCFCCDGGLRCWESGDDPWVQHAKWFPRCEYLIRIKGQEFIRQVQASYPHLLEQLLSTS
recorded-endpoint: IC50

smiles-notation | system | IC50
CN[C@@H](C)C(=O)N[C@H](C(=O)N1C[C@@H](OCCCN2CCN(CCCO[C@H]3C[C@@H](C(=O)N[C@@H]4CCCc5ccccc54)N(C(=O)[C@@H](NC(=O)[C@H](C)NC)C4CCC4)C3)CC2)C[C@H]1C(=O)N[C@@H]1CCCc2ccccc21)C1CCC1 | cIAP2-BIR3 (Homo sapiens, UniProt Q13489) | 10 to 100 nM
CC[C@H](NC(=O)[C@H](C)NC)C(=O)N1C[C@@H](OCCCN2CCN(CCCO[C@H]3C[C@@H](C(=O)N[C@@H]4CCCc5ccccc54)N(C(=O)[C@H](CC)NC(=O)[C@H](C)NC)C3)CC2)C[C@H]1C(=O)N[C@@H]1CCCc2ccccc21 | cIAP2-BIR3 (Homo sapiens, UniProt Q13489) | 0.1 to 10 nM
CN[C@@H](C)C(=O)N[C@H](C(=O)N1C[C@@H](OCCCN2CCN(CCCO[C@H]3C[C@@H](C(=O)N[C@@H]4CCCc5ccccc54)N(C(=O)[C@@H](NC(=O)[C@H](C)NC)C4CC4)C3)CC2)C[C@H]1C(=O)N[C@@H]1CCCc2ccccc21)C1CC1 | cIAP2-BIR3 (Homo sapiens, UniProt Q13489) | 10 to 100 nM

Proceeding to the next compound to report its IC50.
Field request: IC50 | item: CC[C@H](C)[C@H](NC(=O)[C@H](C)NC)C(=O)N1C[C@@H](OCCCN2CCN(CCCO[C@H]3C[C@@H](C(=O)N[C@@H]4CCCc5ccccc54)N(C(=O)[C@@H](NC(=O)[C@H](C)NC)[C@@H](C)CC)C3)CC2)C[C@H]1C(=O)N[C@@H]1CCCc2ccccc21 0.1 to 10 nM
